The origin of these recorded values is PubChem BioAssay.

system: R275C/beta2Delta; assay: modulators of BK channel variants, profiling panel, selectivity assay, cell-based, U2OS BacMam, thallium flux, beta subunits (AID 1259406); conditions: at 30 µM;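 note: initial slope of Thallos dye fluorescence rise after thallium is added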
Param label: returns YES when log fold change Tl+ flux < 0.03, returns NO otherwise, including exact equality.

CC(=O)[C@H]1CC[C@H]2[C@@H]3C[C@H](C)C4=CC(=O)CC[C@]4(C)[C@H]3[C@@H](O)C[C@]12C = NO
CC(=O)CC(c1ccccc1)c1c(O)c2ccccc2oc1=O (centres undefined) = NO
O[C@@H](c1cc(C(F)(F)F)nc2c(C(F)(F)F)cccc12)[C@H]1CCCCN1 = NO
CCn1cc(C(=O)O)c(=O)c2cc(F)c(N3CCN(C)CC3)cc21 = YES
CC(C)Oc1ccc2c(=O)c(-c3ccccc3)coc2c1 = YES
COC1=CC(=O)C[C@@H](C)[C@]12Oc1c(Cl)c(OC)cc(OC)c1C2=O = YES
CCN(CC)CCOC(=O)c1ccc(N)cc1 = YES
NC(=O)N1c2ccccc2CC(=O)c2ccccc21 = NO
CCOC(=O)[C@H](CCc1ccccc1)N[C@@H](C)C(=O)N1Cc2ccccc2C[C@H]1C(=O)O = YES
